# Target of assay: UniProt P00750
# Sequence (P00750 whole entry): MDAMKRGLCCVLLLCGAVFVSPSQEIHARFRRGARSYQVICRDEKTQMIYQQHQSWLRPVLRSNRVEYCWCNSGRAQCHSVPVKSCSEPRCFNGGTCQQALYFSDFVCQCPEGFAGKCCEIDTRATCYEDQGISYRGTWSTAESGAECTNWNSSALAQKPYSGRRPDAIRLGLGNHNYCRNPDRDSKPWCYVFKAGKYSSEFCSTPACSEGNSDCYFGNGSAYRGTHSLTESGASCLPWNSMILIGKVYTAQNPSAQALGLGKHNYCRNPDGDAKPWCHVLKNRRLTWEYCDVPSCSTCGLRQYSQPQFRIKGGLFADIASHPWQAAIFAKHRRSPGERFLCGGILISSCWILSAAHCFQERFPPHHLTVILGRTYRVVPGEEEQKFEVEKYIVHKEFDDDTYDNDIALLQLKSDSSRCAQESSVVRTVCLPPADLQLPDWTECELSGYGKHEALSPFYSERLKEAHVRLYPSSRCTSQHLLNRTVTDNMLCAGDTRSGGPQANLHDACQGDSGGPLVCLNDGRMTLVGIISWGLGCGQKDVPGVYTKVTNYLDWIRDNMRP
Quantity measured: pKi
pKi here is simply -log10 of the concentration when that concentration is written in mol/L.

## Task Given `COc1cccc(-c2csc(-c3cc(C(=N)N)sc3SC)n2)c1` , state its recorded pKi.
## Result 5.72

====

# Target of assay: UniProt:P00747
# Sequence (P00747 97-580 limits assumed): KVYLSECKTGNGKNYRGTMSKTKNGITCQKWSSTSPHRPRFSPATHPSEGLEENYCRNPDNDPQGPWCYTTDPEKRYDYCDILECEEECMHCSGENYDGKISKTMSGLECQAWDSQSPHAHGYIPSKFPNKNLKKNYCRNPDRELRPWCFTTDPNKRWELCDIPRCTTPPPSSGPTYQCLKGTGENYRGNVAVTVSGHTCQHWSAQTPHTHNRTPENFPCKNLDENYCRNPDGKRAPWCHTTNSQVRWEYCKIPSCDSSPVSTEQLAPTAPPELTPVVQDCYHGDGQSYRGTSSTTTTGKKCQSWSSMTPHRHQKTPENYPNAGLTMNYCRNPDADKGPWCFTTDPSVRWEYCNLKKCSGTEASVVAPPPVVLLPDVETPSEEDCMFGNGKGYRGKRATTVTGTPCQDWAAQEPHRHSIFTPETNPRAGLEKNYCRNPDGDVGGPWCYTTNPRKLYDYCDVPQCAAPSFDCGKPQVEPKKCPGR
# Sequence (P00747 581-810 limits assumed): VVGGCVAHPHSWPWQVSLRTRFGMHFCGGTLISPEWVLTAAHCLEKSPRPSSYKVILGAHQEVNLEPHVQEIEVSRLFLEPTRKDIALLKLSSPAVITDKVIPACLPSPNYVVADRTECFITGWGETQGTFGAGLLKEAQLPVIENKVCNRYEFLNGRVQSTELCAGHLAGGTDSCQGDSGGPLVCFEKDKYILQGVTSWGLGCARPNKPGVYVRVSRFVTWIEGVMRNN
Quantity measured: pKi
# pKi: negative log10 of molar concentration; output just the value

## Task I have this compound here, `COc1cccc(-c2csc(-c3cc(C(=N)N)sc3SC)n2)c1` , and I need its recorded pKi.
## Result 5.16

====

Parameter pKi, tested on UniProtKB P00749, listed per item.
Field pKi (float): negative decimal logarithm of the concentration in molar.

CSc1sc(C(=N)N)cc1-c1nc(COc2ccccc2)cs1 :: 3.75
CSc1sc(C(=N)N)cc1-c1nc(-c2cccc(O)c2)cs1 :: 4.07
CSc1sc(C(=N)N)cc1-c1nc(-c2ccc(Cl)cc2)cs1 :: 4.00

## Task What value of pKi has been reported for the following compound? `CSc1sc(C(=N)N)cc1-c1nc(-c2ccc3c(c2)OCCCO3)cs1`
## Result 4.00

## Task Try `CSc1sc(C(=N)N)cc1-c1nc(-c2ccc(Cl)c([N+](=O)[O-])c2)cs1` next.
## Result 3.79

## Task Also need `CSc1sc(C(=N)N)cc1-c1nc(-c2ccc(Cl)cc2Cl)cs1` , thanks.
## Result 3.54

## Task Next record, please: `CSc1sc(C(=N)N)cc1-c1nc(-c2cccc(Br)c2)cs1`
## Result 3.35

## Task Then `CSc1sc(C(=N)N)cc1-c1nc(-c2cccnc2Cl)cs1` ?
## Result 3.81

## Task For `CSc1sc(C(=N)N)cc1-c1nc(-c2cccc(C)c2)cs1` then?
## Result 3.26

## Task Let us now turn to `CSc1ccc(C(=N)N)s1`
## Result 5.22

## Task Further, for `CSc1sc(C(=N)N)cc1-c1nc(-c2ccc(C)cc2)cs1` ?
## Result 4.03

## Task Another: `CSc1sc(C(=N)N)cc1-c1nc(-c2ccccc2C)cs1`
## Result 3.56

## Task Could you do the same for `CSc1sc(C(=N)N)cc1-c1ccccc1` , please?
## Result 6.22

## Task What would you report for `CSc1sc(C(=N)N)cc1-c1nc(-c2ccc(S(=O)(=O)Nc3ccc(C)cc3)cc2)cs1` ?
## Result 3.57

## Task What do you have for `CSc1sc(C(=N)N)cc1-c1nc(-c2ccc(NS(C)(=O)=O)cc2)cs1` ?
## Result 4.03

## Task Entry to check: `CSc1sc(C(=N)N)cc1-c1nc(-c2ccc([N+](=O)[O-])cc2)cs1`
## Result 3.57

## Task Likewise for `CSc1sc(C(=N)N)cc1-c1nc(-c2ccc(O)c(C)c2)cs1` ?
## Result 4.36
